Source listed as paper PMC10607160.

molecular target: human GnRHR I (Homo sapiens); construct: expressed in transfected cells; assay: Competitive radioligand binding (125I-DTyr6-His5-GnRH) on membranes from HEK 293 cells stably expressing GnRHR I; conditions: competition with 125I-DTyr6-His5-GnRH, HEK 293 membranes, 4 °C 16-19 h, one-site model; read-out: apparent binding affinity (IC50)
Sequence (P30968 whole entry): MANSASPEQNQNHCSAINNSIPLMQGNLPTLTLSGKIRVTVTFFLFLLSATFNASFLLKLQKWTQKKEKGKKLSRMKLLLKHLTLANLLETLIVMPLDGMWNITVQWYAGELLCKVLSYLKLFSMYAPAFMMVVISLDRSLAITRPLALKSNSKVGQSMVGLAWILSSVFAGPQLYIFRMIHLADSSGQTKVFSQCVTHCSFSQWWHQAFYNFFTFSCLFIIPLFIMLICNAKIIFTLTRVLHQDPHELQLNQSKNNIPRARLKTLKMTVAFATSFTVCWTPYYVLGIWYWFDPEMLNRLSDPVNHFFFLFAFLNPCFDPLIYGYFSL
recorded_endpoint: pIC50
Scale for pIC50: -log10 of concentration given in mol/L; no unit attached.

// query I would be grateful if you could share the reported pIC50 for CCNC(=O)[C@@H]1CCCN1C(=O)[C@H](CCCNC(=N)N)NC(=O)[C@H](CC(C)C)NC(=O)[C@@H](CCCCNC(=O)CCCCCNC(=O)CCSSCC(=O)OCCNCCNc1ccc(NCCNCCO)c2c1C(=O)c1c(O)ccc(O)c1C2=O)NC(=O)[C@H](Cc1ccc(O)cc1)NC(=O)[C@H](CO)NC(=O)[C@H](Cc1c[nH]c2ccccc12)NC(=O)[C@H](Cc1c[nH]cn1)NC(=O)[C@@H]1CCC(=O)N1 .
// result 10.22
